The reported numbers originate from PubChem BioAssay (NCI).

- Method Summary: NCI Yeast Anticancer Drug Screen. Data for the CLN2oe strain (AID 163);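 further: 0% = growth of vehicle-only control cultures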
- Reported Conditions: S. cerevisiae CLN2oe strain, at 11.0 µM
The panel holds about 79,000 compounds, 15% with a hit somewhere; the sample as a whole holds those more often. The source made the active and inactive calls. No stated cut-off is given here; in the data, active means growth inhibition above about 70%; inactive means the rest.
Outcomes: active, inactive

Compound	Category
COC1CCC(O)C(/C=C/[N+](=O)[O-])C1 (stereo not given)	active
N#CC1=C(N)N(/N=C/c2ccccc2)C(c2ccccc2)C1(C#N)C#N (stereo not given)	inactive
COc1cc([C@@H]2c3cc4c(cc3[C@@H](Nc3ccc(NC(=O)c5cc([N+](=O)[O-])cn5C)cc3)[C@H]3COC(=O)[C@H]23)OCO4)cc(OC)c1O	inactive
CC1CC[C@]2(C(=O)O)CCC3(C)C(=CC(=O)C4[C@@]5(C)CCC(=O)C(C)(C)C5CC[C@]43C)[C@@H]2[C@H]1C (stereo not given in full)	active
O=c1ssc(=Nc2ccccc2)n1-c1ccccc1	inactive
CC1=C(C(=O)NCc2ccccc2)C(c2ccccc2)C(C(=O)NCc2ccccc2)=C(C)N1	inactive
Cc1cc(N(CCOS(C)(=O)=O)CCOS(C)(=O)=O)ccc1C=Nc1ccc(-c2nc(Cc3ccccc3)sc2C)cc1	inactive
CCOC1Oc2ccccc2-c2nc(N)ncc21 (stereo not given)	inactive
Clc1ccc2c(c1)N(CCCN1CCCC13CCCCC3)c1ccccc1S2	inactive
O=[N+]([O-])c1cc(S(=O)(=O)Nc2ccccc2)ccc1Nc1ccccc1	active
Cc1csc(=S)n1OC(=O)NC1CCCCC1	active
Cc1nc2c(Br)cc(Br)cc2c(=O)n1-c1ccccc1NC1OCC(O)C(O)C1O (stereo not given)	inactive
CN(C)/C=C/c1nnc([N+](=O)[O-])s1	inactive
NC(=O)c1c([N+](=O)[O-])cc(C(F)(F)F)cc1[N+](=O)[O-]	inactive
S=c1sc2c(s1)SCCS2	inactive
Cc1cc(=O)oc2c(C)c3occc(=O)c3cc12	inactive
CCOC1(c2cccc([N+](=O)[O-])c2)c2ccccc2Oc2ccccc21	inactive
Cc1ccccc1N=Cc1cc(Cl)ccc1O	inactive
Cc1ccc2c(c1)C1(SC(C)C(=O)N1c1ccc(Cl)cc1)C(=O)N2 (stereo not given)	inactive
Oc1ccc2c(c1)C(O)CCCC2 (stereo not given)	inactive

====

- Method Summary: NCI Yeast Anticancer Drug Screen. Data for the rad50 strain (AID 155);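 further: 0% = growth of vehicle-only cultures of the same strain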
- Reported Conditions: S. cerevisiae rad50 strain growth inhibition; at 100.0 µM
Compounds without any hit were thinned out: in the full panel of roughly 79,000, 15% have a hit. Calls of active or inactive are those of the source. Cut-off read from the data, not from the text of the source: active = growth inhibition above about 70%; inactive = the rest.
Labels: 1 = active, 0 = inactive

Molecule	Category
O=C1N=C2SC=C(NC(=S)Nc3ccccc3)N2NC12c1ccccc1-c1ccccc12	1
Cc1ccc(Sc2ccccc2N)cc1	1
CCCCCCSc1ncnc2[nH]ncc12	0
CC(C)CCCC(C)C1CCC2C3CCC4=CC(=O)/C(=C\O)CC4(C)C3CCC12C (stereo not given)	0
O=C(CC(C(=O)O)N1CCOCC1)c1ccccc1 (stereo not given)	1
Cc1cc2c(cc1C)[n+]([O-])c(-c1nc3ccccc3s1)c(N)[n+]2[O-]	1
CN(C)CCNC(=O)c1cccc2c1Oc1c(cccc1[N+](=O)[O-])O2	1
Nc1cc(N)c(N=Nc2cccc3c(S(=O)(=O)O)cccc23)cc1N=Nc1cc([N+](=O)[O-])ccc1O	0
CCCC/C=C/C(C)(C(=O)OCC)C(=O)OCC	0
c1ccc(CCN2CCc3ccccc3C2)cc1	0
CC(=O)ON=C1C=CC(=C(C#N)c2ccc(Cl)cc2)C=C1	0
CC1=CC(=C(c2ccc(N)cc2)c2ccc(N)cc2)C=CC1=N	1
CC1=C(C(=O)NCc2ccccc2)C(c2ccccc2)C(C(=O)NCc2ccccc2)=C(C)N1	1
O=C1c2cccnc2C(=O)C2C3C=CC(C3)C12 (stereo not given)	1
Cc1c(C)c(C)c(CSC(=N)N)c(C)c1C	1
O=C1C=C(Cl)C(=O)C(c2ccc(Cl)cc2)=C1	1
Cc1cc(O)c(C(C)C)cc1C1(c2cc(C(C)C)c(O)cc2C)OC(=O)c2ccccc21	0
CCOC(=O)c1cc([N+](=O)[O-])c(Sc2ncnc3nc[nH]c23)c([N+](=O)[O-])c1	1
CCN(CC)CCNc1ccc2ncn3c4cc(OC)c(OC)c(=O)c4c(O)c1c23	0
CCN(CC)CCN(C)CCc1ccc(Br)cc1	1
COc1cc(C2c3cc4c(cc3OC(OC(C)=O)C2C)OCO4)cc(OC)c1OC (stereo not given)	1
Nc1ccc(F)cc1S	1
CCc1nc2ccc(NCCN(C)C)c3c(=O)c4ccccc4n1c23	1
CC(C)=NOC(=O)Nc1ccc(Cl)cc1	0
NC(=O)c1c([N+](=O)[O-])cc(C(F)(F)F)cc1[N+](=O)[O-]	0

====

- Method Summary: NCI Yeast Anticancer Drug Screen. Data for the rad14 strain (AID 159);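 further: 0% = growth of vehicle-treated control cultures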
- Reported Conditions: S. cerevisiae rad14 strain growth inhibition; at 1.2 µM; hits give high values
The panel holds about 79,000 compounds, 15% with a hit somewhere; the sample as a whole holds those more often.
The entries below come with measured growth inhibition values attached.
Parameter: growth inhibition (%)

Compound	Parameter	Unit Info	Quantitative Result
Cc1cc(O)c(C(C)C)cc1C1(c2cc(C(C)C)c(O)cc2C)OC(=O)c2ccccc21	growth inhibition	%	-1
COc1nc2c(c(=O)n1C)N=C(c1ccccc1)[C@H](C(CC(=O)c1ccccc1)c1ccccc1)C(c1ccccc1)N2 (stereo partly specified)	growth inhibition	%	-1
Oc1ccc2c(c1)C(O)CCCC2 (stereo unspecified)	growth inhibition	%	5
CC(C)C(C)/C=C\C(C)C1CCC2C3=CC=C4CC(O)CCC4(C)C3CCC21C (stereo unspecified)	growth inhibition	%	-1
Brc1ccccc1-c1ncc(-c2ccccc2)o1	growth inhibition	%	-43
COc1cc(/C=C2\CCC/C(=C\c3ccc(O)c(OC)c3)C2=O)ccc1O	growth inhibition	%	5
Cc1cc(NCCCCCCCCNc2cc(C)nc3cc(N)ccc23)c2ccc(N)cc2n1	growth inhibition	%	-40
Oc1ccc(SCc2ccc(NCc3ccccc3)cc2)cc1	growth inhibition	%	-30
COc1oc(C(=O)NC2CCCCC2)c(-c2ccc(Cl)cc2)c1S(=O)(=O)c1ccccc1	growth inhibition	%	-22
CCN(CC)CCOc1cc(C)c2cc(Cc3ccccc3)ccc2n1	growth inhibition	%	4
Nc1n[n+]([O-])c2ccc(Cl)cc2[n+]1[O-]	growth inhibition	%	12

====

- Method Summary: NCI Yeast Anticancer Drug Screen. Data for the bub3 strain (AID 167)
- Reported Conditions: S. cerevisiae bub3 mutant strain, at 5.0 µM (retest, dose inferred, filed as 0.5), hits give high values
About 79,000 compounds went through this panel and 15% of them were active in at least one assay; those are over-represented in the sample as a whole.
Tick T if growth inhibition is 10% or greater. Tick F if growth inhibition is less than 10%.

Molecule	Category
CCOC1Oc2ccccc2-c2nc(N)ncc21 (centres undefined)	F
CCCCCCCCCCCC1=NCCO1	F
O=C(Nc1ccc(Cl)cc1)Nc1nnc2nc(C(C(=O)c3cccc([N+](=O)[O-])c3Cl)c3nc4nnc(NC(=O)Nc5ccc(Cl)cc5)n4[nH]c3=O)c(=O)[nH]n12	F
NNC(=O)CCc1cc2ccccc2c2ccccc12	T
O=C1C=C(N2CCN(c3ccccn3)CC2)C(=O)c2c(O)ccc(O)c21	F
COc1cc(C2c3cc4c(cc3OC(OC(C)=O)C2C)OCO4)cc(OC)c1OC (centres undefined)	T
CCOC(=O)[C@H]1Nc2ccc(OC)cc2C2c3ccccc3CC21 (some centres undefined)	F
CC(C)(C)[Si](C)(C)OCC1CCC(n2cnc3c(NC(=O)c4ccccc4)ncnc32)O1 (centres undefined)	F
S=c1[nH]c2cc3ccccc3cc2[nH]1	F
CCC(C)(C)c1ccc(Oc2cccc(C(=O)O)c2)cc1	F
COc1ccc(/C=C/c2sc3ccccc3[n+]2CCCCI)cc1OC	F
O=C1OC(OC/C(Br)=C(\Br)COC2OC(=O)C(Cl)=C2Cl)C(Cl)=C1Cl (centres undefined)	T
Oc1[nH]c2ccccc2c1N=NC(=S)N1CCCCC1	F
O=[N+]([O-])c1cc(Cl)cnc1Br	F
CC(C)CN(CC(C)C)C(=O)c1ccc(Cl)c(Cl)c1	F
OC(/C=C/c1ccccc1)(Cc1cc(-c2ccccc2)n[nH]1)c1ccccc1 (centres undefined)	F
O=c1nc2n(Cc3ccccc3)c3ccccc3nc-2c(=O)[nH]1	T
Cc1cccc(C(C)(C)C)c1NC(=O)C(C#N)C1=C(Cl)C(=O)c2ccccc2C1=O (centres undefined)	T
Cc1ccc2c3ccc4c(c3n(C)c2c1)C(=O)C=CC4=O	T
NC(=O)C(=O)NNc1ccccc1	T
Cc1csc(=S)n1OC(=O)NC1CCCCC1	T
OCC(CO)C(c1cccc2ccccc12)c1cccc2ccccc12	F
CN(C)CCNC(=O)c1cccc2c1Oc1c(cccc1[N+](=O)[O-])O2	T
CC(=O)OC1CC2C(C)(C)C(=O)C=C[C@]2(C)C2CCC3(C)C(=CCC3[C@H](CO)C[C@H](O)C(=O)C(C)(C)O)[C@]12C (some centres undefined)	T
c1ccc(Cc2cc(-c3ccccc3)n[nH]2)cc1	F
CCOC(=O)/C(=C\c1ccc(C#N)cc1)C(C)=O	T
COc1ccc2[nH]cc([C@@H]3C4CCC(C4)[C@H]3NCc3cccc(CN[C@H]4C5CCC(C5)[C@@H]4c4c[nH]c5ccc(OC)cc45)c3)c2c1	F
O=[N+]([O-])c1cc(F)c(F)cc1Sc1cc(F)c(F)cc1[N+](=O)[O-]	T
Nc1nc2ccc(NCc3ccc(C(=O)NC(CCC(=O)O)C(=O)O)cc3)cc2c(=O)[nH]1 (centres undefined)	T
CCOC(=O)C(C(=O)OCC)=P(c1ccccc1)(c1ccccc1)c1ccccc1	F
O=c1ccc(=O)n(-c2ccccc2)[nH]1	T
CCOC(=O)c1cc([N+](=O)[O-])c(Sc2ncnc3nc[nH]c23)c([N+](=O)[O-])c1	F
CCOC1(c2cccc([N+](=O)[O-])c2)c2ccccc2Oc2ccccc21	T
CC1CC(C)(C)CC(OCCN2CCCCC2)(c2ccccc2)C1 (centres undefined)	F
COc1ccc(C/C=N/Nc2ccc([N+](=O)[O-])cc2)cc1OC	T
O=[n+]1c2ccccc2n([O-])c2cc(Br)ccc21	T
Nc1cc(N)c(N=Nc2cccc3c(S(=O)(=O)O)cccc23)cc1N=Nc1cc([N+](=O)[O-])ccc1O	T
C(=Nc1ccc(-c2cc(-c3ccccc3)nc3ccc4ccccc4c23)cc1)c1ccccc1	T
O=C1c2ccccc2C(=O)N1CCCC(=O)n1cc(F)c(=O)[nH]c1=O	T
O=C1C=C(c2ccccc2)OC1(c1ccccc1)N1CCOCC1 (centres undefined)	F
OC1(c2ccccc2)CCCc2ccc(Cl)cc21 (centres undefined)	F
C=C1CCC(O)C/C1=C/C=C1\CCCC2(C)C1CCC2C(C)CCCC(C)C (centres undefined)	F
Cc1ccc([N+]2=NC(c3ccccc3)=NN(c3ccccc3)C2)cc1	F
